measurement.notes: in vivo
condition.summary: ICR, mouse, brain/plasma, po, 5 mg/kg
property.name: Kp uu at 24 h

query.smiles | property.name | assay.value
Cc1c(F)cncc1-c1ccc2nc(NC(=O)[C@@H]3C[C@@H]3F)sc2c1 | Kp uu at 24 h | 0.21

---

measurement.notes: in vivo
condition.summary: ICR, mouse, plasma, po, 5 mg/kg
Items are presented alongside their recorded Tmax at 24 h.

compound | Tmax at 24 h
Cc1cn(-c2cc(NC(=O)c3ccc(C)c(Nc4nccc(-c5cccnc5)n4)c3)cc(C(F)(F)F)c2)cn1 [NILOTINIB] | 1 h
Cc1c(F)cncc1-c1ccc2nc(NC(=O)[C@@H]3C[C@@H]3F)sc2c1 | 1.2 h

Ref: ChEMBL document CHEMBL4842381
